- measurement description: self-splicing fitness, log relative to wild type (ln ratio); higher = more splicing; Tetrahymena group I intron in knt gene, E. coli kanamycin selection, DiMSum; sequences stand for … in CUCUCU…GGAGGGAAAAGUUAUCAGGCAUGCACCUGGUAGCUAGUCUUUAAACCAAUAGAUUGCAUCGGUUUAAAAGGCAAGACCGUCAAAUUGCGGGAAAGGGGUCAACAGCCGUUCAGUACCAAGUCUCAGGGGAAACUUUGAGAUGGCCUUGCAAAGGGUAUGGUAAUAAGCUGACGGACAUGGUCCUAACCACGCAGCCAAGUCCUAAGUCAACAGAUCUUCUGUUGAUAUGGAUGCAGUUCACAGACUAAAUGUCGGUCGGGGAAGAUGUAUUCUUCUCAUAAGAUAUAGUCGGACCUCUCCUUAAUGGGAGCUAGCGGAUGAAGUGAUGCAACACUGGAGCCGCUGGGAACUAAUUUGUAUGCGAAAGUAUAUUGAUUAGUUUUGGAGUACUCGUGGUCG;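 further: selection with 25 µg/mL kanamycin versus none on LB agar overnight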
- settings: 37 °C
readout: self-splicing fitness (ln)
Write no unit; give the number alone.

Task item: // returns reported self-splicing fitness (ln) for input GACUAGCAAUAUUACGCAUC
Reply: -2.95

Task item: // returns reported self-splicing fitness (ln) for input UGUUAGCAAUAUUACGGUAG
Reply: -0.35

Task item: // returns reported self-splicing fitness (ln) for input UACCAGCAAUAUUACGCCCG
Reply: -0.0962

Task item: // returns reported self-splicing fitness (ln) for input UGUUAGCAAUAUUACGUCUC
Reply: -2.07

Task item: // returns reported self-splicing fitness (ln) for input GUCCAGCAAUAUUACGAUGU
Reply: -0.235

Task item: // returns reported self-splicing fitness (ln) for input GAGGAGCAAUAUUACGGUAU
Reply: -1.25

Task item: // returns reported self-splicing fitness (ln) for input AGGAAGCAAUAUUACGAUCA
Reply: -0.31

Task item: // returns reported self-splicing fitness (ln) for input GCCCAGCAAUAUUACGCCAG
Reply: -2.32

Task item: // returns reported self-splicing fitness (ln) for input UAACAGCAAUAUUACGAGUG
Reply: -0.34

Task item: // returns reported self-splicing fitness (ln) for input GGAAAGCAAUAUUACGCCAA
Reply: -0.527

Task item: // returns reported self-splicing fitness (ln) for input AUUAAGCAAUAUUACGCGUG
Reply: -0.697

Task item: // returns reported self-splicing fitness (ln) for input ACCGAGCAAUAUUACGAACU
Reply: -0.803

Task item: // returns reported self-splicing fitness (ln) for input UGACAGCAAUAUUACGUAGA
Reply: -1.14

Task item: // returns reported self-splicing fitness (ln) for input UCCGAGCAAUAUUACGAUAU
Reply: -2.46

Task item: // returns reported self-splicing fitness (ln) for input UCUAAGCAAUAUUACGCGAA
Reply: -1.69

Task item: // returns reported self-splicing fitness (ln) for input GCAUAGCAAUAUUACGCCUC
Reply: -0.756

Task item: // returns reported self-splicing fitness (ln) for input UUUUAGCAAUAUUACGGCAA
Reply: -0.398

###

- measurement description: self-splicing fitness, log relative to wild type (ln ratio); higher = more splicing; Tetrahymena group I intron in knt gene, E. coli kanamycin selection, DiMSum; sequences stand for … in CUCUCU…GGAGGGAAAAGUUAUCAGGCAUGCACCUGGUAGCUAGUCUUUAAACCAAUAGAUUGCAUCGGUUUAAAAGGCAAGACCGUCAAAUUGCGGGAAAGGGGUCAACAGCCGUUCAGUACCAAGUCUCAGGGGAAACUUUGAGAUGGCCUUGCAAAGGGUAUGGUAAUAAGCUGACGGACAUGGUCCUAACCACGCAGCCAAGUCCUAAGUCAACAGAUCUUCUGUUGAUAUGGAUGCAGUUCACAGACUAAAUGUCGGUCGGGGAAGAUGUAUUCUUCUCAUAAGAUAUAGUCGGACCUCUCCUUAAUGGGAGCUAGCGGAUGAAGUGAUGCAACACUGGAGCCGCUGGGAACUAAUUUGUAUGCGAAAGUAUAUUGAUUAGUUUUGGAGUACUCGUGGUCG
- settings: 30 °C
Give self-splicing fitness (ln) for every item shown.
Write no unit; give the number alone.

Task item: // returns reported self-splicing fitness (ln) for input GUAGAGCAAUAUUACGUUUG
Reply: -2.91

Task item: // returns reported self-splicing fitness (ln) for input CUAGAGCAAUAUUACGGGAU
Reply: -2.94

Task item: // returns reported self-splicing fitness (ln) for input CCCCAGCAAUAUUACGAAUU
Reply: -3.01

The reported numbers originate from the supplement of paper PMC7877785.
